Where do the numbers come from? From PubChem BioAssay AID651658.

# key: entry, value: activity (Tm shift, normalised)
# Tgt: Fibroblast growth factor 22 (Homo sapiens)
# Assay Method Text: binders of human FGF22 protein, primary screen, FGF22 synaptogenesis inhibitor project, biophysical, thermal shift, single point (AID 651658)
# Measurement Conditions: recombinant FGF22 thermal shift, SYPRO orange fluorescence; at 9.99 µM; stronger effect = higher value; percent of sucrose octasulfate shift, DMSO zero
The whole screen tested about 340,000 compounds, of which about 5,100 (1.5%) were called active. The sample as a whole holds a higher share of actives than the screen did.

[
  {
    "Test Smiles": "COc1ccc(-c2ccc3c(n2)CCCN3S(=O)(=O)c2ccc(C)cc2)cc1",
    "Result Unit": "%",
    "activity (Tm shift, normalised)": 48.4
  },
  {
    "Test Smiles": "O=C(C[C@H]1C[C@@H]2c3cc(NS(=O)(=O)c4ccc(F)cc4)ccc3O[C@@H]2[C@@H](CO)O1)NCc1cccc(F)c1",
    "Result Unit": "%",
    "activity (Tm shift, normalised)": -0.007
  },
  {
    "Test Smiles": "O=C(c1cccc([N+](=O)[O-])c1)N1CCN(Cc2ccccc2)CC1",
    "Result Unit": "%",
    "activity (Tm shift, normalised)": 0.006
  },
  {
    "Test Smiles": "CCCC(=O)Nc1ccc2c(c1)C(=O)N(C)C[C@H](OC)[C@H](C)CN(C(=O)c1ccccn1)[C@H](C)CO2",
    "Result Unit": "%",
    "activity (Tm shift, normalised)": -0.212
  },
  {
    "Test Smiles": "Cc1cccc(C)c1NC(=O)C1(N(C(=O)c2ccccn2)c2ccc(O)cc2)CCCCC1",
    "Result Unit": "%",
    "activity (Tm shift, normalised)": 43
  },
  {
    "Test Smiles": "O=C(Cc1ccncc1)N[C@H]1CC[C@H](CCn2cc(-c3ccccc3F)nn2)O[C@@H]1CO",
    "Result Unit": "%",
    "activity (Tm shift, normalised)": 0.035
  },
  {
    "Test Smiles": "C[C@@H]1CN([C@@H](C)CO)S(=O)(=O)c2ccc(C#C[C@@H](C)O)cc2O[C@@H]1CN(C)C(=O)CN(C)C",
    "Result Unit": "%",
    "activity (Tm shift, normalised)": -0.212
  },
  {
    "Test Smiles": "O=C(CNC1CCCCC1)NCC1(c2ccccc2)CCCC1",
    "Result Unit": "%",
    "activity (Tm shift, normalised)": 43
  },
  {
    "Test Smiles": "COC(=O)c1c(C)[nH]c(C)c1-c1ccc([N+](=O)[O-])cc1",
    "Result Unit": "%",
    "activity (Tm shift, normalised)": 0.028
  },
  {
    "Test Smiles": "O=C(C[C@H]1C=C[C@H](NC(=O)CC2CC2)[C@H](CO)O1)NCc1ccc(Cl)cc1",
    "Result Unit": "%",
    "activity (Tm shift, normalised)": -0.113
  }
]
